experimentalTarget: rSULT1A1 (Rattus norvegicus, UniProt P17988)
Sequence (P17988 whole entry): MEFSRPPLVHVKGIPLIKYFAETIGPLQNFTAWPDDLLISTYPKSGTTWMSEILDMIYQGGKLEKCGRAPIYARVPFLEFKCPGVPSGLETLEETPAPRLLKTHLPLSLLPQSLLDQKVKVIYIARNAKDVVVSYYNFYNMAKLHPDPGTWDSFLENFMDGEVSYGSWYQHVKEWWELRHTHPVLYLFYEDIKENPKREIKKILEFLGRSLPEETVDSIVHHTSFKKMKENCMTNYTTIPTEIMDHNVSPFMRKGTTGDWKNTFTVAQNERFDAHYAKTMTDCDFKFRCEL
test: Kd of OHPCBs with rSULT1A1 by displacement of ANS
Assay type: binding
condition: read-out: Kd values for OHPCBs with rSULT1A1, Without PAP, GSSG, enzyme pretreated with 1 mM GSSG, pH 7.0, 37 °C
measuredQuantity: Kd

Completed entries (count: 3):
The recorded Kd for entry Oc1c(Cl)cc(-c2ccccc2Cl)cc1Cl equals 0.23 µM

Item: Oc1ccc(-c2ccc(Cl)c(Cl)c2)c(Cl)c1 | Kd: 2.5 µM

The reported Kd of the compound Oc1ccc(-c2ccc(Cl)c(Cl)c2)cc1 was 2.5 µM

I have 6 compounds here; please give me Kd for each one.
1. Oc1ccc(-c2ccccc2Cl)cc1Cl
2. Oc1c(Cl)cc(-c2ccc(Cl)cc2Cl)cc1Cl
3. Oc1ccc(-c2ccc(Cl)c(Cl)c2)cc1Cl
4. Oc1ccc(Cl)cc1-c1ccc(Cl)c(Cl)c1
5. Oc1ccc(-c2cc(Cl)ccc2Cl)cc1
6. Oc1c(Cl)cc(-c2ccccc2)cc1Cl

Response given:
1. 0.5 µM
2. 0.53 µM
3. 1.6 µM
4. 117 µM
5. 7.1 µM
6. 0.22 µM

* * *

experimentalTarget: rSULT1A1-PAP complex (Rattus norvegicus, UniProt P17988)
test: Kd of OHPCBs with the rSULT1A1-PAP complex by displacement of ANS
Assay type: binding
condition: read-out: Kd values for OHPCBs with rSULT1A1, With 0.27 mM PAP, GSH, enzyme pretreated with 1 mM GSH, pH 7.0, 37 °C
Threshold 500 nM: Kd strictly smaller gives T, otherwise F.

// known answers, use as guide
Challenge: Find out if reported Kd for Oc1ccc(Cl)cc1-c1ccc(Cl)c(Cl)c1 is less than 500 nM
Response given: F

Challenge: Does the reported Kd of Oc1c(Cl)cc(-c2ccc(Cl)cc2Cl)cc1Cl stay below 500 nM?
Response given: T

Challenge: Just wondering, is Kd of Oc1ccc(-c2ccc(Cl)c(Cl)c2)cc1Cl below 500 nM?
Response given: F

New cases:
Challenge: Dear colleague, could you confirm whether Kd of Oc1ccc(-c2cc(Cl)ccc2Cl)cc1 falls below 500 nM? Thanks.
Response given: F

Challenge: API: query returns whether the compound falls strictly under 500 nM in Kd. Query: Oc1c(Cl)cc(-c2ccccc2)cc1Cl
Response given: T

Challenge: Please indicate whether the reported Kd of Oc1ccc(-c2ccccc2Cl)cc1Cl is strictly below 500 nM.
Response given: F

Challenge: For Oc1ccc(-c2ccc(Cl)c(Cl)c2)cc1 , is the recorded Kd below the cut-off of 500 nM?
Response given: F

Challenge: Lab log: compare recorded Kd with 500 nM; is it strictly lower for Oc1ccc(-c2ccc(Cl)c(Cl)c2)c(Cl)c1 ?
Response given: F

* * *

experimentalTarget: rSULT1A1 (Rattus norvegicus)
test: Kd of OHPCBs with rSULT1A1 by displacement of ANS
Assay type: binding
condition: read-out: Kd values for OHPCBs with rSULT1A1, Without PAP, GSH, enzyme pretreated with 1 mM GSH, pH 7.0, 37 °C
measuredQuantity: Kd (µM)
Answers are plain numbers, in µM.

Worked examples, 8 molecules total:
# Kd (molecule: Oc1ccc(Cl)cc1-c1ccc(Cl)c(Cl)c1 [6’-OH PCB 35] ) is 65

Memo: Oc1c(Cl)cc(-c2ccccc2Cl)cc1Cl [4-OH PCB 34] , reported Kd: 0.37

Note to self: Kd recorded for Oc1ccc(-c2ccc(Cl)c(Cl)c2)cc1 [4’-OH PCB 12] was 4

Notebook: Oc1ccc(-c2ccc(Cl)c(Cl)c2)cc1Cl [4’-OH PCB 35] , Kd read as 3.6

# Kd of Oc1ccc(-c2ccc(Cl)c(Cl)c2)c(Cl)c1 [4’-OH PCB 33] = 2

For reference, reported Kd for Oc1ccc(-c2cc(Cl)ccc2Cl)cc1 [4’-OH PCB 9] stands at 12

Field Kd (entry Oc1c(Cl)cc(-c2ccccc2)cc1Cl [4-OH PCB 14] ) reads 0.26

Per the records, this molecule ( Oc1c(Cl)cc(-c2ccc(Cl)cc2Cl)cc1Cl [4’-OH PCB 68] ) has Kd equal to 0.67

Next:
The molecule Oc1ccc(-c2ccccc2Cl)cc1Cl [4’-OH PCB 6] showed Kd equal to 0.66
